Taken from patent EP4772193A1.

Listed here are binders together with their documented pEC50.
target desc: T1, recombinant human soluble gpNMB (recombinant human gpNMB-FLAG-His) (human, UniProt Q14956 23-498)
T1 sequence: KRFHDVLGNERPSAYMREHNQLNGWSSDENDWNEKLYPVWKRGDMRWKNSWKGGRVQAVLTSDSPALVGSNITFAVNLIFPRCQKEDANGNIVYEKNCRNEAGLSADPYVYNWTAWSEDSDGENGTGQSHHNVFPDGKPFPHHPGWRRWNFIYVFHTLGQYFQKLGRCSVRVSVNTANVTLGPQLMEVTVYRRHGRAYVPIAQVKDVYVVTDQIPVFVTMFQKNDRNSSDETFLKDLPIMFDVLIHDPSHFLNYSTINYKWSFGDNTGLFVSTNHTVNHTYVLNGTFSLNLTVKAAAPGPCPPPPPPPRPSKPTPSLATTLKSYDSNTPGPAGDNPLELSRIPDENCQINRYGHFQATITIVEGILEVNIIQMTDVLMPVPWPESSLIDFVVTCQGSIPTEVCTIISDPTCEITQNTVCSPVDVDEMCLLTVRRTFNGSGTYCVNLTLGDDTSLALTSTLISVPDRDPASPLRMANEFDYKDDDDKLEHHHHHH
protocol notes: antigen ELISA
The read-out pEC50 is expressed as -log10 of concentration in moles per litre.

hGPN06-1_H1L1 VL S49A (antibody, V domains shown) VH: QVQLVQSGAEVKKPGASVKVSCKASGYTFTDNWMGWVKQRPGQGLEWIGAIDPSDSFTNYNQNFKGRVTMTVDTSISTAYMELSRLRSDDSAVYFCTRSGYYGSPKLGGDYWGQGTLVTVSS VL: EIVLTQSPSSLSASVGDRVTITCSASSSISYMHWYQQKSGTAPKLLIYATSNLASGVPSRFSGSGSGTDFTFTISSLQPEDAATYYCHQWNSYPCTFGGGTKLEIK	9.15
hGPN06-1_H1L1 VL S27A (antibody, V domains shown) VH: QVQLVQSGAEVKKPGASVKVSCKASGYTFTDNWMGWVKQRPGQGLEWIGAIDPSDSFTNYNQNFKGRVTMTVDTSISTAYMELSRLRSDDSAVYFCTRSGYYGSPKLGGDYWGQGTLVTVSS VL: EIVLTQSPSSLSASVGDRVTITCSASASISYMHWYQQKSGTAPKLLIYSTSNLASGVPSRFSGSGSGTDFTFTISSLQPEDAATYYCHQWNSYPCTFGGGTKLEIK	8.81

API: the following record is the query input.
Input line: Field request: pEC50 | item: hGPN06-1_H1L1 VL N52A (antibody, V domains shown) VH: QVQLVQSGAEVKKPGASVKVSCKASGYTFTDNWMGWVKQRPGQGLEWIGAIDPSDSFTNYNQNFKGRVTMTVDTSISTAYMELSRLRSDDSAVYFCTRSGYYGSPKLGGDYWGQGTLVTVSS VL: EIVLTQSPSSLSASVGDRVTITCSASSSISYMHWYQQKSGTAPKLLIYSTSALASGVPSRFSGSGSGTDFTFTISSLQPEDAATYYCHQWNSYPCTFGGGTKLEIK
Output line: 9.07
